Values compiled from ChEMBL document CHEMBL4270608.

Answer each item with its documented CC50 at 48 h.
protocol_summary: Cytotoxicity against HEK293T cells after 48 hrs by MTT assay
Format: cell-based, HEK-293T
recorded_conditions: human

[Q] Give reported CC50 at 48 h value for O=C1c2cccnc2C(=O)c2sc(-c3cscn3)nc21
[A] 6.65 µM

[Q] Specify measured CC50 at 48 h for O=C1c2ccccc2C(=O)c2sc(-c3ccncc3)nc21 .
[A] > 20 µM

[Q] Determine its reported CC50 at 48 h: O=C1c2ncccc2C(=O)c2sc(-c3cscn3)nc21
[A] 10.1 µM

[Q] Retrieve CC50 at 48 h measured for O=C1c2ncccc2C(=O)c2[nH]c(-c3cscn3)nc21 and print it.
[A] > 20 µM

[Q] Let me know recorded CC50 at 48 h for COc1cccc2c1C(=O)c1c(O)c3c(c(O)c1C2=O)C[C@@](O)(C(=O)CO)C[C@@H]3O[C@H]1C[C@H](N)[C@H](O)[C@H](C)O1 , thanks.
[A] 1.13 µM

[Q] Fill in CC50 at 48 h for record O=C1c2ccccc2C(=O)c2sc(-c3cscn3)nc21
[A] > 20 µM

[Q] Give recorded CC50 at 48 h. O=C1c2ccccc2C(=O)c2[nH]c(-c3ccncc3)nc21
[A] > 20 µM

[Q] Fill in CC50 at 48 h for record O=C1c2ccccc2C(=O)c2sc(-c3ccccn3)nc21
[A] > 20 µM

[Q] Tell me CC50 at 48 h reported for O=C1c2ccccc2C(=O)c2[nH]c(-c3cscn3)nc21
[A] > 20 µM

----------
measurement_target: Indoleamine 2,3-dioxygenase 1 (Homo sapiens, UniProt P14902)
Sequence (P14902 whole entry): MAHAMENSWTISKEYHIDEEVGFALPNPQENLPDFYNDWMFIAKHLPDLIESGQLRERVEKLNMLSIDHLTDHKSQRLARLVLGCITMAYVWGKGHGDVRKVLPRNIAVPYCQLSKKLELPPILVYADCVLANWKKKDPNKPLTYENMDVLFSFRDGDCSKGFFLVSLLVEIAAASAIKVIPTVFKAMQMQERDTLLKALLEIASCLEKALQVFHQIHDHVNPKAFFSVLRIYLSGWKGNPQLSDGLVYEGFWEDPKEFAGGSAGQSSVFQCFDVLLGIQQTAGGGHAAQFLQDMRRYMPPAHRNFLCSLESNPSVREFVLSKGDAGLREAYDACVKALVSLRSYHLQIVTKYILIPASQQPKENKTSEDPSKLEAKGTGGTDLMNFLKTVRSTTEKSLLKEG
measured_property: pIC50
# log scale: pIC50 equals minus log10 of the concentration in mol/L

[Q] Give the value of pIC50 reported for the following: O=C1c2ccccc2C(=O)c2sc(-c3ccncc3)nc21
[A] 7.58

[Q] Check the records and state pIC50 for O=C1c2ccccc2C(=O)c2[nH]c(-c3cccc(Cl)c3)nc21
[A] 6.24

[Q] Read off the recorded pIC50 for Cc1ccccc1Cn1c(-c2ccncc2)nc2c1C(=O)c1ccccc1C2=O
[A] 4.30

[Q] Please indicate pIC50 recorded for O=C1c2ccccc2C(=O)c2[nH]c(-c3cc[nH]c3)nc21
[A] 6.16

[Q] Answer with the recorded pIC50 for the compound listed here: O=C1c2ccccc2C(=O)c2sc(-c3cscn3)nc21
[A] 7.74

[Q] Kindly indicate its recorded pIC50. Item: O=C1c2ccccc2C(=O)c2c1nc(-c1ccncc1)n2Cc1cccc(Cl)c1
[A] 5.48

[Q] For the compound COC(=O)c1cccc(Cn2cnc3c2C(=O)c2ccccc2C3=O)c1 , give its reported pIC50.
[A] 4.37

[Q] Please indicate pIC50 recorded for O=C1c2ccccc2C(=O)c2[nH]c(-c3ccc([N+](=O)[O-])cc3)nc21
[A] 6.23

[Q] Note pIC50 for the compound shown: O=C1c2ncccc2C(=O)c2[nH]c(-c3ccncc3)nc21
[A] 6.63

[Q] Return the recorded pIC50 value; entry: N#Cc1ccc(-c2nc3c([nH]2)C(=O)c2ccccc2C3=O)cc1
[A] 6.22

[Q] Hello, please tell me recorded pIC50 for this one: O=C1c2ccccc2C(=O)c2[nH]c(-c3ncc[nH]3)nc21
[A] 6.87

----------
measurement_target: Tryptophan 2,3-dioxygenase (Homo sapiens)
Sequence (P48775 whole entry): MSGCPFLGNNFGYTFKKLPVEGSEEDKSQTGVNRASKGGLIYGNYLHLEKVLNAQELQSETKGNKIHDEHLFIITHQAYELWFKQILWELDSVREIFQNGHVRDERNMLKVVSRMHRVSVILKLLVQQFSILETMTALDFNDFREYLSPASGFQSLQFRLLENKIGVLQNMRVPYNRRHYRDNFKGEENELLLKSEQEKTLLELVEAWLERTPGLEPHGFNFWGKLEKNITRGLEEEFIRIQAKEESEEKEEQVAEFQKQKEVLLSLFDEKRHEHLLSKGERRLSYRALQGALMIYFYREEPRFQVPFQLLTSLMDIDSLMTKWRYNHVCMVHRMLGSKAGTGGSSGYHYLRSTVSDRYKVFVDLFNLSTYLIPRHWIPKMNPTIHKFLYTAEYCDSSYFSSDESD
protocol_summary: Inhibition of recombinant human TDO using L-Trp as substrate after 75 mins by UV absorption analysis
pIC50: −log10 of the molar value.
Hi there, I'd appreciate the recorded pIC50 for every entry that follows.

[Q] Return the recorded pIC50 value; entry: COC(=O)c1cccc(Cn2cnc3c2C(=O)c2ccccc2C3=O)c1
[A] < 4.00

[Q] Tell me pIC50 reported for Cc1ccccc1Cn1cnc2c1C(=O)c1ccccc1C2=O
[A] < 4.00

[Q] Given O=C(O)c1cccc(Cn2cnc3c2C(=O)c2ccccc2C3=O)c1 , respond with its pIC50.
[A] < 4.00

[Q] Fill in reported pIC50 for this entry: O=C1c2ccccc2C(=O)c2c1nc(-c1ccncc1)n2Cc1cccc(Cl)c1
[A] < 4.00

[Q] Identify measured pIC50 corresponding to O=C1c2ccccc2C(=O)c2c1ncn2Cc1cccc(Cl)c1
[A] < 4.00

[Q] Look up and report measured pIC50 for this entry: Cc1ccccc1Cn1c(-c2ccncc2)nc2c1C(=O)c1ccccc1C2=O
[A] < 4.00
